Data export: AC50 values recorded with Gamma-aminobutyric acid receptor subunit alpha-1 (Rattus norvegicus).
Sequence (P62813 whole entry): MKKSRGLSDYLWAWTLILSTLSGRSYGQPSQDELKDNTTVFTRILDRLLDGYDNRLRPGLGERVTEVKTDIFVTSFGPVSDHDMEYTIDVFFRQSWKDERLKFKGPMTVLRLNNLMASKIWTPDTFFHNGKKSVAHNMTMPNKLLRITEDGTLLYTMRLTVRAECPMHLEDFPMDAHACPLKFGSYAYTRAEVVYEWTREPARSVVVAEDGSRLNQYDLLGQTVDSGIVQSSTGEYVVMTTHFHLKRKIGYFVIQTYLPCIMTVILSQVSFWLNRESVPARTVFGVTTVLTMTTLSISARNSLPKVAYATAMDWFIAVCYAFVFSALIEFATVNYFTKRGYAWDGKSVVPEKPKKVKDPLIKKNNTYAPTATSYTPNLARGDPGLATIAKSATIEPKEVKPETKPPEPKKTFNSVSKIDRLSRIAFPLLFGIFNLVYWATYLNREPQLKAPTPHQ

Study these solved cases before continuing.
MOLECULE	AC50
C#CCN(C)Cc1ccccc1	> 30 µM
CN1CCc2c(c3ccccc3n2Cc2ccccc2)C1 [MEBHYDROLIN]	25.4 µM

What does the record list as AC50 for `Cc1ccc(O)c([C@H](CCN(C(C)C)C(C)C)c2ccccc2)c1` ?
> 30 µM

###

- TARGET: Amine oxidase [flavin-containing] A (Homo sapiens, UniProt P21397); further: assay procedure not described here
- Sequence (P21397 whole entry): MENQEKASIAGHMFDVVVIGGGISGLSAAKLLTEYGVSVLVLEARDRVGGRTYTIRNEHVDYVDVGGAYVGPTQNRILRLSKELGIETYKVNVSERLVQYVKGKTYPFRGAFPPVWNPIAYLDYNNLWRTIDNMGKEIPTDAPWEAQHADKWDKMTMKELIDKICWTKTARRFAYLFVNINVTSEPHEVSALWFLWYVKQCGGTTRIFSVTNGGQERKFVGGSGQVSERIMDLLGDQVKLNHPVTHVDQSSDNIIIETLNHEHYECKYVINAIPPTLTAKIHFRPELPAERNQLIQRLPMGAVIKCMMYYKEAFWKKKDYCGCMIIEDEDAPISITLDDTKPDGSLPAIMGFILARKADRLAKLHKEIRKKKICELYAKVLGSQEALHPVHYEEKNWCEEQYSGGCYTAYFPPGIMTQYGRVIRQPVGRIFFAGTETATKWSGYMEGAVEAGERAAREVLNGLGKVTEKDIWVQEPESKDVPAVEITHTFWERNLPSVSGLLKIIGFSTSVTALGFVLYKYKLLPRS
- Assay type: functional
Here the recorded AC50 is given for each entry.

Study these solved cases before continuing.
MOLECULE	MEASUREMENT
O=C(Cc1cccs1)N[C@@H]1C(=O)N2C(C(=O)[O-])=C(C[n+]3ccccc3)CS[C@H]12	> 30 µM
NS(=O)(=O)c1ccc(N2CCCCS2(=O)=O)cc1	> 30 µM
CC1=C(CC(=O)O)c2cc(F)ccc2/C1=C\c1ccc([S+](C)[O-])cc1 (centres undefined)	> 10 µM

// moving on: another record for AC50
Form field - read-out: AC50; system: Amine oxidase [flavin-containing] A (Homo sapiens, UniProt P21397); submitted item: CN1CC2c3ccccc3Oc3ccc(Cl)cc3C2C1 (centres undefined); further: assay procedure not described here
> 30 µM
